System: DU-145
Assay: NCI tumour cell line growth inhibition, 48 h
Calls of active or inactive are those of the source. Rule as the data show it: active = GI50 up to about 1.1 µM and inactive = higher.
Reported GI50 values for a set of molecules
Observable: GI50

• N#CCC(=O)Nn1c(CC#N)nnc1Cc1ccccc1 = > 100 µM (inactive)
• COc1c(CC=C(C)C)c(O)c(C(CC(C)C)c2c(O)c(CC=C(C)C)c(O)c(C(C)=O)c2O)c(O)c1C(C)=O (configuration not stated) = 2.32 µM (inactive)
• BrCc1ccc(CBr)c2c1-c1c(CBr)ccc3ccc(CBr)c-2c13 = > 100 µM (inactive)
• O=C(NNCc1ccco1)c1cc2ccccc2[nH]1 = > 100 µM (inactive)
• COC(=O)CCCC(=O)NC1=C(NCc2ccccc2)C(=O)c2ccccc2C1=O = > 100 µM (inactive)
• FC(F)(Sc1ncc[nH]1)c1nc2ccccc2o1 = > 100 µM (inactive)
• COc1cc2c[n+](C)c3c(c2cc1OC)Cc1cc2c(cc1-3)OCO2 = > 100 µM (inactive)
• c1ccc(C(=NNc2cnc3ccccc3n2)c2ccccn2)cc1 = 3.3 µM (inactive)
• O=C1c2cscc2C(=O)c2c(OCc3ccccc3)ccc(OCc3ccccc3)c21 = > 100 µM (inactive)
• O=C1NC(N2CCOCC2)=N/C1=C\c1ccccc1O = > 100 µM (inactive)
• O=C1NC(c2c(Cl)cccc2Cl)Nc2ccccc21 (configuration not stated) = 29.2 µM (inactive)
• CCN1C/C(=C\c2ccc(Cl)cc2)c2[nH]c(=O)c(C#N)c(-c3ccc(Cl)cc3)c2C1 = > 100 µM (inactive)
• O=C1OC(c2ccccc2)=N/C1=C\c1ccc(F)cc1 = > 100 µM (inactive)
• CC(C)N(C(C)C)S(=O)(=O)CC12CCC(C/C1=N\O)C2 (configuration not stated) = > 100 µM (inactive)
• Oc1ccc(O)c(CNc2ccccc2)c1 = 12.3 µM (inactive)
• O=C1C=C(Nc2ccccc2C(=O)CC(=O)C(=O)Nc2cccc(C(F)(F)F)c2)c2ccccc2C1=O = 78 µM (inactive)
• COc1cc([N+](=O)[O-])c(OC)c2c(Nc3ccc(S(=O)(=O)O)c4cc(S(=O)(=O)O)cc(S(=O)(=O)O)c34)cc(C)nc12 = > 100 µM (inactive)
• O=C(O)CCC1(c2ccccc2)NC(=O)NC1=O (configuration not stated) = > 100 µM (inactive)
• Cc1c(C)c2c(c(N)c1C#N)C(=O)N(Cc1ccc(S(N)(=O)=O)cc1)C2=O = 32.1 µM (inactive)
• CCN(CC)CCCNc1nncc2c(C)c3[nH]c4ccccc4c3cc12 = 0.706 µM (active)
• O=C1C=Cc2cscc21 = 34.3 µM (inactive)
• CCOC(=O)/C=C\C(C#N)(C#N)/N=C/c1ccsc1 = 16.5 µM (inactive)
